Items are presented alongside their recorded melting temperature.
Test system: HeLa Kyoto;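 also: HeLa Kyoto cells synchronized by double thymidine or nocodazole block, proteins quantified by TMT10plex mass spectrometry, three independent biological replicates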
assay.procedure: melting temperature (median over replicates), in situ; higher = more thermally stable
study.conditions: cell cycle stage: G1/S
Form entry: value (°C) — number only.

Take a look at these entries with their results.
{"ordered.residues": "MGLLDLCEEVFGTADLYRVLGVRREASDGEVRRGYHKVSLQVHPDRVGEGDKEDATRRFQILGKVYSVLSDREQRAVYDEQGTVDEDSPVLTQDRDWEAYWRLLFKKISLEDIQAFEKTYKGSEEELADIKQAYLDFKGDMDQIMESVLCVQYTEEPRIRNIIQQAIDAGEVPSYNAFVKESKQKMNARKRRAQEEAKEAEMSRKELGLDEGVDSLKAAIQSRQKDRQKEMDNFLAQMEAKYCKSSKGGGKKSALKKEKK [DNAJC9]", "scale.unit": "°C", "melting temperature": 52}
{"ordered.residues": "MKLLARALRLCEFGRQASSRRLVAGQGCVGPRRGCCAPVQVVGPRADLPPCGACITGRIMRPDDANVAGNVHGGTILKMIEEAGAIISTRHCNSQNGERCVAALARVERTDFLSPMCIGEVAHVSAEITYTSKHSVEVQVNVMSENILTGAKKLTNKATLWYVPLSLKNVDKVLEVPPVVYSRQEQEEEGRKRYEAQKLERMETKWRNGDIVQPVLNPEPNTVSYSQSSLIHLVGPSDCTLHGFVHGGVTMKLMDEVAGIVAARHCKTNIVTASVDAINFHDKIRKGCVITISGRMTFTSNKSMEIEVLVDADPVVDSSQKRYRAASAFFTYVSLSQEGRSLPVPQLVPETEDEKKRFEEGKGRYLQMKAKRQGHAEPQP [ACOT7]", "scale.unit": "°C", "melting temperature": 58.9}
{"ordered.residues": "MADSSPALSLREGGPRAPRPSAPSPPPRSRSGSESEEAELSLSLARTKTRSYGSTASVRAPLGAGVIERHVEHRVRAGDTLQGIALKYGVTMEQIKRANKLFTNDCIFLKKTLNIPVISEKPLLFNGLNSIDSPENETADNSFSQEEEPVVAGEDLPPPSPQESDVQPVQPEEVSARDFLQRLDLQIKLSTQAAKKLKEESRDEESPYATSLYHS [LYSMD2]", "scale.unit": "°C", "melting temperature": 52}
{"ordered.residues": "MFKVIQRSVGPASLSLLTFKVYAAPKKDSPPKNSVKVDELSLYSVPEGQSKYVEEARSQLEESISQLRHYCEPYTTWCQETYSQTKPKMQSLVQWGLDSYDYLQNAPPGFFPRLGVIGFAGLIGLLLARGSKIKKLVYPPGFMGLAASLYYPQQAIVFAQVSGERLYDWGLRGYIVIEDLWKENFQKPGNVKNSPGTK [APOO]", "scale.unit": "°C", "melting temperature": 54.8}

Switching to the query record.
Quick check: melting temperature on HeLa Kyoto, item MASNVTNKTDPRSMNSRVFIGNLNTLVVKKSDVEAIFSKYGKIVGCSVHKGFAFVQYVNERNARAAVAGEDGRMIAGQVLDINLAAEPKVNRGKAGVKRSAAEMYGSVTEHPSPSPLLSSSFDLDYDFQRDYYDRMYSYPARVPPPPPIARAVVPSKRQRVSGNTSRRGKSGFNSKSGQRGSSKSGKLKGDDLQAIKKELTQIKQKVDSLLENLEKIEKEQSKQAVEMKNDKSEEEQSSSSVKKDETNVKMESEGGADDSAEEGDLLDDDDNEDRGDDQLELIKDDEKEAEEGEDDRDSANGEDDS [HNRNPC] ? 47.4

Reference source for all entries: the supplement of paper PMC5998384
